MIC values for the compounds below.
system: K. pneumoniae ATCC 29665; experiment: In vitro antibiotic activity, agar dilution method (Mueller-Hinton agar, NCCLS); format: cell-based; conditions: Klebsiella pneumoniae, ATCC29665; agar dilution, Mueller-Hinton agar; read-out: MIC for K. pneumoniae ATCC 29665

Please review the following examples before continuing.
[
  {
    "compound": "CC(CCN1CC=C(c2ccc(C#CCCCCN3CCOCC3)cc2)CC1)(C(=O)NO)S(C)(=O)=O (centres unmarked) [Example 30]",
    "observed": "1 to 8 µg/mL"
  },
  {
    "compound": "CC(CCN1CC=C(c2ccc(C#CC3CCCC3)cc2)CC1)(C(=O)NO)S(C)(=O)=O (centres unmarked) [Example 9]",
    "observed": "1 to 8 µg/mL"
  },
  {
    "compound": "CC(CCN1CC=C(c2ccc(C#CCN3CCC[C@H]3CO)cc2)CC1)(C(=O)NO)S(C)(=O)=O (some centres unmarked) [Example 17]",
    "observed": "8 to 16 µg/mL"
  },
  {
    "compound": "COCC#Cc1ccc(C2=CCN(CCC(C)(C(=O)NO)S(C)(=O)=O)CC2)cc1 (centres unmarked) [Example 23]",
    "observed": "1 to 8 µg/mL"
  }
]

Return reported MIC; argument: CN(C)CC#Cc1c(F)cc(C2=CCN(CCC(C)(C(=O)NO)S(C)(=O)=O)CC2)cc1F (centres unmarked) [Example 32]
1 to 8 µg/mL

What does the data say about its MIC? Entry: CC(CCN1CC=C(c2ccc(-c3ccsc3)cc2)CC1)(C(=O)NO)S(C)(=O)=O (centres unmarked) [Example 70]
< 1 µg/mL

I'd like to know its MIC. The compound in question is CC(CCN1CC=C(c2ccc(C#CCCCO)cc2)CC1)(C(=O)NO)S(C)(=O)=O (centres unmarked) [Example 18]
1 to 8 µg/mL

Data request, read-out MIC, for CC(CCN1CC=C(c2ccc(-c3ccc(S(=O)(=O)N4CCC4)cc3)cc2)CC1)(C(=O)NO)S(C)(=O)=O (centres unmarked) [Example 68]
1 to 8 µg/mL
